Target: MDR1 (P-glycoprotein) (Homo sapiens, UniProt P08183)
Construct: host or cells: MDCK (MDR1-MDCK; wild-type MDCK as comparator)
Sequence (P08183 whole entry): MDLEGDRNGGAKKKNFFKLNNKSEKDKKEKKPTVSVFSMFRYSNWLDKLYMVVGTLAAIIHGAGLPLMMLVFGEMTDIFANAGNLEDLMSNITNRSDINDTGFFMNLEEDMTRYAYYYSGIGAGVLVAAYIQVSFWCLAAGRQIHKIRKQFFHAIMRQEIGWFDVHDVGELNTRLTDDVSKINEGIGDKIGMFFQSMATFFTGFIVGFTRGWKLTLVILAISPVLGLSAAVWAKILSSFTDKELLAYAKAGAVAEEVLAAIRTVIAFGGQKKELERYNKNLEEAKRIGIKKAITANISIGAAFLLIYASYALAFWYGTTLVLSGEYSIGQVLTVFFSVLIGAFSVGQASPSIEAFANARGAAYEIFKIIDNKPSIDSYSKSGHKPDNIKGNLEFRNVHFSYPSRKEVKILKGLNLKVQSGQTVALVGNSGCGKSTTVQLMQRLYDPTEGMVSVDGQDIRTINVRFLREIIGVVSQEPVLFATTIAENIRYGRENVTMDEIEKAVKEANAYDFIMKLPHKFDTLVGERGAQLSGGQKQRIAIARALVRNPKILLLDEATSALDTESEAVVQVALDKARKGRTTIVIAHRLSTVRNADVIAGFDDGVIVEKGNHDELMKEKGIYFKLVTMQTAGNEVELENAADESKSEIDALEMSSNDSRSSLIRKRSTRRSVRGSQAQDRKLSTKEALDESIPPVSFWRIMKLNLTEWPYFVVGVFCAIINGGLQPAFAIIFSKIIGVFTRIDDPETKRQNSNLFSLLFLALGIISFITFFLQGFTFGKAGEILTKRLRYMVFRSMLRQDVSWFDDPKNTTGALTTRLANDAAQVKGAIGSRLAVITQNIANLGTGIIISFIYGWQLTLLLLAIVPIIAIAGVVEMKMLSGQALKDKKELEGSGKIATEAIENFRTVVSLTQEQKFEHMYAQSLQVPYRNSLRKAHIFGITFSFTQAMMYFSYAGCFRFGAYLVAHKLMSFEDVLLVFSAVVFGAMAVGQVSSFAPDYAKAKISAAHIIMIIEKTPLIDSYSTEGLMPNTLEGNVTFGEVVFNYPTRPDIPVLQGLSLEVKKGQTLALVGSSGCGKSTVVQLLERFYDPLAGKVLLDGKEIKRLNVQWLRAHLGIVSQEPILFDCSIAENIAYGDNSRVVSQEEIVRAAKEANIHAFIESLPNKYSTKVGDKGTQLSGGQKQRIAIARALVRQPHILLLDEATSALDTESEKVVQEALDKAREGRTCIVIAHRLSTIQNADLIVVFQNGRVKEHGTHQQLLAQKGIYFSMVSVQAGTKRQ
Assay: MDR1-MDCK permeability and efflux assay (Papp, efflux ratio, effective efflux ratio)
Type: in vitro ADME
Conditions: dog, MDCK-MDR1, pH 7.4, ER(MDR1-MDCK)/ER(wild-type MDCK); read-out: EER (Effective Efflux Ratio)
Measured property: efflux ratio at 1 h, 10 μM

CC1COc2cc(F)ccc2N1C(=O)N1CC2(C1)CN(c1cnccn1)C2 (single isomer, unassigned) [1-65-B] | < 1
CC1COc2cc(Cl)ccc2N1C(=O)N1CC2(C1)CN(c1ncc(F)cn1)C2 (single isomer, unassigned) [18-2-B] | < 1
O=C(N1CC2(C1)CN(c1ccc(F)cn1)C2)N1CCc2cc(Cl)ccc21 [8-11] | < 1

Could you now look at the following compound, please?
What the record says about O=C(N1CC2(C1)CN(c1cccnn1)C2)N1CCOc2cc(Cl)ccc21 [1-71] : efflux ratio at 1 h, 10 μM is > 3
